test system: recombinant NL-Rluc virus; experiment: microbe, parasite or virus in culture; format: cell-based, HIV; conditions: Human immunodeficiency virus 1, MT2, 120 h, NL-RLuc virus infecting MT-2 cells, 5 days of incubation, luciferase readout; at least 2 experiments; serum condition not given; read-out: EC50
Please go through the items and note down their EC50.
Answers are plain numbers, in nM.

// worked examples, EC50 included
INSERT INTO results (compound, unit_label, reported_value) VALUES
  ('Cc1nc2cc(-c3nc(Cc4ccc(F)cc4)no3)nn2c(-c2cc(F)c3c(c2C)CCCO3)c1[C@H](OC(C)(C)C)C(=O)O [Example 7]', 'nM', 28),
  ('Cc1nc2cc(-c3ncc(Cc4ccc(F)cc4)s3)nn2c(N2CC=C(c3ccccc3)CC2)c1[C@H](OC(C)(C)C)C(=O)O [Example 20]', 'nM', 877),
  ('Cc1nc2cc(-c3ncc(-c4ccc(F)cc4)s3)nn2c(-c2cc(F)c3c(c2C)CCCO3)c1[C@H](OC(C)(C)C)C(=O)O [Example 8]', 'nM', 11),
  ('Cc1nc2cc(-c3cnn(Cc4ccccc4)c3)nn2c(N2CCC(C)(C)CC2)c1[C@H](OC(C)(C)C)C(=O)O [Example 39]', 'nM', 7),
  ('C=CCOC1(C)CCN(c2c([C@H](OC(C)(C)C)C(=O)O)c(C)nc3cc(-c4cnn(Cc5ccccc5)c4)nn23)CC1 [Example 40]', 'nM', 11);

Attention now shifts to the item below.
Recorded EC50 (compound Cc1nc2cc(-c3ncc(-c4cccc(F)c4)s3)nn2c(-c2cc(F)c3c(c2C)CCCO3)c1[C@H](OC(C)(C)C)C(=O)O [Example 9] ): 28

====

test system: recombinant NL-Rluc virus; assay: microbe, parasite or virus in culture; assay type: cell-based, HIV; conditions: Human immunodeficiency virus 1, MT2, 120 h, NL-RLuc virus infecting MT-2 cells, 5 days of incubation, luciferase readout; at least 2 experiments; serum condition not given; read-out: EC50
RECORDED ENDPOINT: EC50 (µM)
Give bare numbers, in µM.

These recorded examples may help you get a feel for the data.
INSERT INTO results (molecule, system, recorded_endpoint, reported_value) VALUES
  ('Cc1nc2cc(-c3ncc(Cc4ccc(F)cc4)s3)nn2c(C2CCC(C)(C)CC2)c1[C@H](OC(C)(C)C)C(=O)O [Example 11]', 'recombinant NL-Rluc virus', 'EC50', 0.082),
  ('Cc1nc2cc(-c3nc4cc(-c5ccccc5)ccc4[nH]3)nn2c(-c2cc(F)c3c(c2C)CCCO3)c1[C@H](OC(C)(C)C)C(=O)O [Example 4]', 'recombinant NL-Rluc virus', 'EC50', 0.133),
  ('Cc1nc2cc(-c3ncc(Cc4ccc(F)cc4)s3)nn2c(N2CCC(C)(C)CC2)c1[C@H](OC(C)(C)C)C(=O)O [Example 13]', 'recombinant NL-Rluc virus', 'EC50', 0.014);

Your task in this section: give EC50 for each listed record.
1. COC1(C)CCN(c2c([C@H](OC(C)(C)C)C(=O)O)c(C)nc3cc(-c4ncc(Cc5ccc(F)cc5)s4)nn23)CC1 [Example 22]
2. Cc1nc2cc(-c3nc4cc(Cl)ccc4n3C)nn2c(-c2cc(F)c3c(c2C)CCCO3)c1[C@H](OC(C)(C)C)C(=O)O [Example 2]
3. Cc1nc2cc(-c3ncc(Cc4ccc(F)cc4)s3)nn2c(C2=CCC(C)(C)CC2)c1[C@H](OC(C)(C)C)C(=O)O [Example 10]

(A)
[0.012, 0.05, 0.019]

EC50 measured on Cc1nc2cc(-n3nccc3Cc3ccccc3)nn2c(N2CCC(C)(C)CC2)c1[C@H](OC(C)(C)C)C(=O)O [Example 35] = 0.573

====

system: recombinant NL-Rluc virus; test: microbe, parasite or virus in culture; type: cell-based, HIV; conditions: Human immunodeficiency virus 1, MT2, 120 h, NL-RLuc virus infecting MT-2 cells, 5 days of incubation, luciferase readout; at least 2 experiments; serum condition not given; read-out: EC50
Doc: threshold 40 nM (exclusive). Items with EC50 beneath it return Yes; others return No.

Previously resolved entries follow.
INSERT INTO measurements (compound, label) VALUES
  ('Cc1nc2cc(-c3nc4cc(Cl)ccc4[nH]3)nn2c(-c2cc(F)c3c(c2C)CCCO3)c1[C@H](OC(C)(C)C)C(=O)O [Example 1]', 'No'),
  ('Cc1nc2cc(-c3ncc(Cc4ccc(F)cc4)o3)nn2c(-c2cc(F)c3c(c2C)CCCO3)c1[C@H](OC(C)(C)C)C(=O)O [Example 6]', 'Yes'),
  ('Cc1nc2cc(-c3ncc(CCc4ccc(F)cc4)s3)nn2c(N2CCC(C)(C)CC2)c1[C@H](OC(C)(C)C)C(=O)O [Example 16]', 'Yes'),
  ('Cc1nc2cc(-n3cc(Cc4ccccc4)c(Cl)n3)nn2c(N2CCC(C)(C)CC2)c1[C@H](OC(C)(C)C)C(=O)O [Example 38]', 'Yes');

(Q) is_below(EC50, 40 nM) for Cc1nc2cc(-c3ncc(Cc4ccc(F)cc4)s3)nn2c(N2CCC(C)(CO)CC2)c1[C@H](OC(C)(C)C)C(=O)O [Example 21] ?
(A) No

(Q) In plain terms, does Cc1nc2cc(-c3ncc(Cc4ccc(F)cc4)o3)nn2c(C2=CCC(C)(C)CC2)c1[C@H](OC(C)(C)C)C(=O)O [Example 12] come in under 40 nM for EC50?
(A) Yes

(Q) Threshold test, EC50 < 40 nM: Cc1nc2cc(-c3ccc(Cc4ccc(F)cc4)s3)nn2c(N2CCC(C)(C)CC2)c1[C@H](OC(C)(C)C)C(=O)O [Example 25]
(A) Yes

(Q) Strictly below 40 nM: is that where EC50 of Cc1nc2cc(-n3ccc(Cc4ccccc4)n3)nn2c(N2CCC(C)(C)CC2)c1[C@H](OC(C)(C)C)C(=O)O [Example 36] sits?
(A) No

(Q) Hi there! Is EC50 for Cc1nc2cc(-c3nc4ccc(Cl)cc4n3C)nn2c(-c2cc(F)c3c(c2C)CCCO3)c1[C@H](OC(C)(C)C)C(=O)O [Example 3] below 40 nM, do you know?
(A) No

(Q) Determine if Cc1nc2cc(-c3ncc(Cc4ccc(F)cc4)s3)nn2c(-c2cc(F)c3c(c2C)CCCO3)c1[C@H](OC(C)(C)C)C(=O)O [Example 5] shows EC50 strictly lower than 40 nM.
(A) Yes

(Q) Bench note: check whether C=CCOC1(C)CCN(c2c([C@H](OC(C)(C)C)C(=O)O)c(C)nc3cc(-c4cn(Cc5ccccc5)cn4)nn23)CC1 [Example 41] shows EC50 below 40 nM
(A) Yes

(Q) Strictly below 40 nM in EC50? C=CCOc1ccccc1Cc1cnn(-c2cc3nc(C)c([C@H](OC(C)(C)C)C(=O)O)c(N4CCC(C)(OCC=C)CC4)n3n2)c1 [Example 37]
(A) Yes

(Q) For this compound, is EC50 lower than 40 nM? Cc1nc2cc(-c3ncc(C(C)c4ccc(F)cc4)s3)nn2c(N2CCC(C)(C)CC2)c1[C@H](OC(C)(C)C)C(=O)O (stereo partly shown) [Example 14]
(A) Yes

====

tested on: recombinant NL-Rluc virus; assay: microbe, parasite or virus in culture; format: cell-based, HIV; conditions: Human immunodeficiency virus 1, MT2, 120 h, NL-RLuc virus infecting MT-2 cells, 5 days of incubation, luciferase readout; at least 2 experiments; serum condition not given; read-out: EC50
Exercise: for every item that follows, state its recorded pEC50.
Answers are plain numbers, as −log10 of the molar value.

INSERT INTO measurements (structure_notation, reported_value) VALUES
  ('Cc1nc2cc(-n3cnc(Cc4ccccc4)c3)nn2c(N2CCC(C)(C)CC2)c1[C@H](OC(C)(C)C)C(=O)O', 7.59),
  ('Cc1nc2cc(-c3ncc(Cc4ccc(F)cc4)s3)nn2c(N2CCC(C)(O)CC2)c1[C@H](OC(C)(C)C)C(=O)O', 6.84);

Please report pEC50 for every entry that follows.
1. Cc1nc2cc(N3CCN(Cc4ccccc4)C3=O)nn2c(N2CCC(C)(C)CC2)c1[C@H](OC(C)(C)C)C(=O)O
2. CCC1(C)CCN(c2c([C@H](OC(C)(C)C)C(=O)O)c(C)nc3cc(-c4ncc(Cc5ccc(F)cc5)s4)nn23)CC1
3. Cc1nc2cc(-c3ncc(Cc4ccc(F)cc4)s3)nn2c(N2CCC(C)(C3CC3)CC2)c1[C@H](OC(C)(C)C)C(=O)O
4. CC1=CCN(c2c([C@H](OC(C)(C)C)C(=O)O)c(C)nc3cc(-c4ncc(Cc5ccc(F)cc5)s4)nn23)CC1
5. Cc1cc(Cc2cnc(-c3cc4nc(C)c([C@H](OC(C)(C)C)C(=O)O)c(N5CCC(C)(C)CC5)n4n3)s2)ccc1F

(A)
[6.84, 7.89, 7.59, 6.98, 7.72]

Fill in: recombinant NL-Rluc virus pEC50 for C=CC1(C)CCN(c2c([C@H](OC(C)(C)C)C(=O)O)c(C)nc3cc(-c4ncc(Cc5ccc(F)cc5)s4)nn23)CC1 = 7.92
